- tested.target: Luciferin 4-monooxygenase (Photinus pyralis)
- test: firefly luciferase enzyme inhibitors, primary screen, biochemical, luminescence, purified enzyme, 2006 set (AID 1141);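 note: cell-free assay with purified firefly luciferase at 100 ng per well in PBS; test concentration not given here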
- test.conditions: SteadyGlo luminescence, 30 min, higher = more signal, called active from +8 up or from −8 down
Binary call on z-score: 1 (yes) from -0.7 upward, 0 (no) beneath that.

- CC(C)C[C@@H]1NC(=O)[C@H]2C[C@@H](C(=O)NCCCCCCNC(=O)CS)[C@@H](c3ccc(O)cc3)N2C1=O: 0 (no)
- C=CCC(OC(C)=O)[C@@H]1[C@@H](N(Cc2cc3ccccc3o2)C(=O)c2cccc3ccccc23)c2cc(OCCCO)ccc2N1C(=O)c1ccc2ccccc2c1 (stereo not given in full): 1 (yes)
- COCCn1c(C(=O)N2CCCC2)cc2c1C[C@H]1CN(C(=O)c3ccccc3)[C@@](Cc3ccccc3)(C(=O)OC)[C@@H]21: 1 (yes)
- COc1ccc(CCNC(=O)[C@@]2(Sc3ccc(C)cc3)CC(=O)N(Cc3cc(C(F)(F)F)cc(C(F)(F)F)c3)[C@@H]2c2ccc(CO)cc2)cc1: 0 (no)
- COCC(=C=CC[C@@H](O)c1cccc(OCCO)c1)C[C@@H](O)COCc1ccccc1: 0 (no)

Here's the next entry for you.
In: Quick check, z-score >= -0.7? O=C1NC(=O)C2C1C=CC(C(O)c1cccc(O)c1)N2Nc1ccc(Cl)cc1Cl (stereo not given)
Out: 1 (yes)
